- TARGET_OR_SYSTEM: T1, human NKG2D-Fc fusion protein (human, UniProt P26718 73-216)
- T1 construct: extracellular domain; also called recombinant human NKG2D-Fc; human recombinant NKG2D; not shown: human IgG1 Fc domain
- T1 sequence (looked up): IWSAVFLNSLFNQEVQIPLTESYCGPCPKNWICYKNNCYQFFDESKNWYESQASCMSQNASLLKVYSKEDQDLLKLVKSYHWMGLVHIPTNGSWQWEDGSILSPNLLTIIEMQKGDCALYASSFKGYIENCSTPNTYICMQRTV
- RUN_DESCRIPTION: ELISA on coated NKG2D-Fc
MEASUREMENT_NAME: binding result

BINDER	MEASURED
ADI-29401 (antibody, V domains shown) VH: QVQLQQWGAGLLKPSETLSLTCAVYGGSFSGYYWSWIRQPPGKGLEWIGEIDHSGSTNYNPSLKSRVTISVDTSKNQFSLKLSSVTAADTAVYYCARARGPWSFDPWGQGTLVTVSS VL: DIQMTQSPSTLSASVGDRVTITCRASQSIGSWLAWYQQKPGKAPKLLIYKASSLESGVPSRFSGSGSGTEFTLTISSLQPDDFATYYCQQYDIYPTFGGGTKVEIK	binds
ADI-29378 (antibody, V domains shown, also called E78) VH: QVQLVQSGAEVKKPGASVKVSCKASGYTFTSYYMHWVRQAPGQGLEWMGIINPSGGSTSYAQKFQGRVTMTRDTSTSTVYMELSSLRSEDTAVYYCAREGAGFAYGMDYYYMDVWGKGTTVTVSS VL: EIVLTQSPATLSLSPGERATLSCRASQSVSSYLAWYQQKPGQAPRLLIYDASNRATGIPARFSGSGSGTDFTLTISSLEPEDFAVYYCQQSDNWPFTFGGGTKVEIK	binds
ADI-29426 (antibody, V domains shown) VH: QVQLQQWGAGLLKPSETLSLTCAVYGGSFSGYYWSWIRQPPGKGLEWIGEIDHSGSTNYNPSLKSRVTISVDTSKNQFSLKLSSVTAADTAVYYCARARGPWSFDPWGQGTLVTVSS VL: DIQMTQSPSTLSASVGDRVTITCRASQSIGSWLAWYQQKPGKAPKLLIYKASSLESGVPSRFSGSGSGTEFTLTISSLQPDDFATYYCQQYHSFPTFGGGTKVEIK	binds

Numbers sourced from patent US20210261668A1.
